Tested on: HEK-293T
Protocol text: Incucyte cell viability with HEK293T; note: unitless GR value; below 1 slowed growth and below 0 cell loss
Type: toxicity, cell-based
Test parameters: human, 24 h, 10 µM, compound concentration 10 uM, replicate number 1, timepoint 24 hours
# Growth Rate listing for each entry below

{"Compound": "CO[C@H]1CC[C@@H](C(=O)c2ccc3nc4c(cc3c2)CCCO4)CC1", "Growth Rate": 0.73}
{"Compound": "CCCN[C@H]1CCc2nc(N)sc2C1.Cl.Cl", "Growth Rate": 0.93}
{"Compound": "CSCC[C@H](NC(=O)[C@@H]1CCCN1C(=O)CNC(=O)[C@H](CCCCN)NC(=O)[C@H](Cc1cnc[nH]1)NC(=O)[C@H](CO)NC(=O)[C@H](CC(C)C)NC(=O)[C@H](CCCNC(=N)N)NC(=O)[C@@H]1CCCN1C(=O)[C@H](CCCNC(=N)N)NC(=O)[C@@H](N)CCC(N)=O)C(=O)N1CCC[C@H]1C(=O)N[C@@H](Cc1ccccc1)C(=O)O", "Growth Rate": 0.74}
{"Compound": "CC(C)C[C@H](CO)Nc1nc(S[C@@H](C)c2ccccc2)nc2nc(N)sc12", "Growth Rate": 0.93}
{"Compound": "O=C(O)CCC/C=C\\CC1C(O)CC(O)C1/C=C/C(O)COc1cccc(Cl)c1 (centres undefined)", "Growth Rate": 0.95}
{"Compound": "CCCCCCCCCCCCCCC[C@@H](O)[C@@H](N)COP(=O)(O)O", "Growth Rate": 0.63}
{"Compound": "S=C(NCCCc1c[nH]cn1)NCCCN(Cc1ccc(Cl)c(Cl)c1)c1ccc(Br)cn1", "Growth Rate": 0.15}
{"Compound": "CC(C)Cc1ccc([C@@H](C)C(=O)NS(C)(=O)=O)cc1", "Growth Rate": 0.82}
{"Compound": "CC(=O)Nc1cccc2c1c(Sc1ccc(Cl)cc1)c(C)n2CC(=O)O", "Growth Rate": 0.71}

----------
System: Fibroblast
Protocol text: Incucyte cell viability with human fibroblast; note: unitless GR value; below 1 slowed growth and below 0 cell loss
Assay type: toxicity, cell-based
Test parameters: 6 h, 10 µM, compound concentration 10 uM, replicate number 1, timepoint 6 hours
# key: entry, value: Growth Rate
Metric: Growth Rate

{"Compound": "CCC(=O)NCC[C@@H]1CCc2ccc3c(c21)CCO3", "Recorded measurement": 0.76}
{"Compound": "CO/C1=C/C(C)=C\\[C@@H](C)[C@@H](O)[C@@H](C)C/C(C)=C\\C=C/[C@H](OC)C([C@@H](C)[C@@H](O)[C@H](C)[C@@]2(O)C[C@@H](O)[C@H](C)[C@@H](C(C)C)O2)OC1=O (some centres undefined)", "Recorded measurement": -0.77}
{"Compound": "Cc1nnc2n1-c1sc(CCC(=O)N3CCOCC3)cc1C(c1ccccc1Cl)=NC2", "Recorded measurement": 0.26}
{"Compound": "NCCc1cn(S(=O)(=O)c2c(Cl)nc3sccn23)c2ccccc12.O=C(O)C(=O)O", "Recorded measurement": -0.77}
{"Compound": "CC(COc1ccccc1)N(CCCl)Cc1ccccc1.Cl (centres undefined) [PHENOXYBENZAMINE HYDROCHLORIDE]", "Recorded measurement": 0.45}
{"Compound": "NC(=O)c1cc2c(-c3ccc(C(=O)NCc4ccnc(Cl)c4)s3)cccc2s1", "Recorded measurement": -0.81}
{"Compound": "O=C(O)Cc1ccccc1Nc1c(Cl)cccc1Cl", "Recorded measurement": 0.86}
{"Compound": "Brc1c(N=C2NCCN2)ccc2nccnc12.O=C(O)C(O)C(O)C(=O)O", "Recorded measurement": 0.39}
{"Compound": "CCCN(CCc1cccs1)[C@H]1CCc2c(O)cccc2C1", "Recorded measurement": 0.1}

----------
System: HEK-293T
Protocol text: Incucyte cell viability with HEK293T; note: unitless GR value; below 1 slowed growth and below 0 cell loss
Assay type: toxicity, cell-based
Test parameters: human, 18 h, 10 µM, compound concentration 10 uM, replicate number 2, timepoint 18 hours
Growth Rate values, listed per item
Metric: Growth Rate

{"Molecule": "CCC(C)n1ncn(-c2ccc(N3CCN(c4ccc(OC[C@@H]5CO[C@@](Cn6cncn6)(c6ccc(Cl)cc6Cl)O5)cc4)CC3)cc2)c1=O.CCC(C)n1ncn(-c2ccc(N3CCN(c4ccc(OC[C@H]5CO[C@](Cn6cncn6)(c6ccc(Cl)cc6Cl)O5)cc4)CC3)cc2)c1=O (some centres undefined)", "Recorded measurement": 0.02}
{"Molecule": "CC(C)Oc1ccc(Cc2ccc(NC3=NCCN3)cc2)cc1", "Recorded measurement": 0.27}
{"Molecule": "COc1cc(Br)c(S(=O)(=O)Nc2ccc(C(F)(F)F)c(O[C@@H]3CCN(C)C3)c2)cc1OC", "Recorded measurement": 0.94}
{"Molecule": "CCCCCCCC/C=C\\CCCCCCCC(N)=O [OLEAMIDE]", "Recorded measurement": 0.94}
{"Molecule": "CC#C[C@@H](CC(=O)O)c1ccc(OCc2cccc(-c3ccc(C(F)(F)F)cc3)c2)cc1", "Recorded measurement": 0.93}
{"Molecule": "CC(C)Cc1ccc([C@@H](C)C(=O)NS(C)(=O)=O)cc1", "Recorded measurement": 0.83}
{"Molecule": "OCCN1CCN(CCCN2c3ccccc3Sc3ccc(Cl)cc32)CC1", "Recorded measurement": 0.67}
{"Molecule": "CSc1nc(NC2CCCC2)c([N+](=O)[O-])c(NC2CCCC2)n1", "Recorded measurement": 0.92}
{"Molecule": "CN[C@@H]1Cc2cccc3[nH]c(=O)n(c23)C1.O=C(O)/C=C\\C(=O)O", "Recorded measurement": 0.98}
{"Molecule": "CNC(=O)c1nn(C)c2c1C(C)(C)Cc1cnc(Nc3ccc(N4CCN(C)CC4)cc3)nc1-2", "Recorded measurement": -0.15}
{"Molecule": "CCC(=O)NC[C@@H]1C[C@H]1c1cccc2c1CCO2", "Recorded measurement": 0.94}
{"Molecule": "COC(=O)[C@H](CCCNC(=N)N)NC(=O)CCCc1c(-c2ccccc2)[nH]c2c(F)cc(F)cc12.O=C(O)C(F)(F)F", "Recorded measurement": 0.5}
{"Molecule": "CNCCN1CCC(c2cc(CN(C)C(=O)c3cccc(Oc4ccccc4)c3)ccn2)CC1", "Recorded measurement": 0.92}
{"Molecule": "OCc1cc(C(O)CNCCCCCCOCCCCc2ccccc2)ccc1O (centres undefined)", "Recorded measurement": 0.72}
{"Molecule": "Cc1cc(C)cc([C@@H]2c3cc(C)ccc3NC(=O)CN2C(=O)c2ccc(Br)s2)c1", "Recorded measurement": 0.69}
{"Molecule": "CCc1cc2c(cc1-c1cccc(S(=O)(=O)F)c1)C(C)(C)c1[nH]c3cc(C#N)ccc3c1C2=O", "Recorded measurement": 0.62}
{"Molecule": "CN[C@@H](C)C(=O)N[C@H](C(=O)N1CCC[C@H]1C(=O)Nc1snnc1-c1ccccc1)C1CCCCC1", "Recorded measurement": 0.66}
{"Molecule": "CCOC(=O)c1c(/C(C#N)=C\\N)c2ccc(Cl)c(Cl)c2n1C", "Recorded measurement": 0.7}
{"Molecule": "COc1cc2nc(N3CCN(C(=O)COc4c(OC)cccc4C(C)C)CC3)nc(N)c2cc1OC.Cl.Cl", "Recorded measurement": 0.61}
{"Molecule": "Cl.Cl.NCCc1c[nH]cn1 [HISTAMINE DIHYDROCHLORIDE]", "Recorded measurement": 0.79}
{"Molecule": "Cc1ccccc1C#Cc1ccc(CCC(=O)O)cc1", "Recorded measurement": 0.67}
{"Molecule": "CO/C1=C/C(C)=C\\[C@@H](C)[C@@H](O)[C@@H](C)C/C(C)=C\\C=C/[C@H](OC)C([C@@H](C)[C@@H](O)[C@H](C)[C@@]2(O)C[C@@H](O)[C@H](C)[C@@H](C(C)C)O2)OC1=O (some centres undefined)", "Recorded measurement": -0.5}
{"Molecule": "Cc1[nH]cnc1CN1CCc2c(c3ccccc3n2C)C1=O", "Recorded measurement": 0.96}
{"Molecule": "Br.Br.c1ncc(CC2CCNCC2)[nH]1", "Recorded measurement": 0.93}
{"Molecule": "NC(N)=Nc1nc(CSCCC(N)=NS(N)(=O)=O)cs1", "Recorded measurement": 0.89}
{"Molecule": "OC[C@H]1O[C@@H](n2cnc3c(NC4CCCC4)ncnc32)[C@H](O)[C@@H]1O", "Recorded measurement": 0.65}
{"Molecule": "COc1cc(/C=C/C(=O)NCCn2c(C)cc3ccccc32)cc(OC)c1OC", "Recorded measurement": 0.55}
{"Molecule": "CN1[C@@H]2CC[C@H]1C[C@@H](OC(=O)C(CO)c1ccccc1)C2 (some centres undefined)", "Recorded measurement": 0.65}
{"Molecule": "CC(=O)O[C@H]1C(=O)[C@@]2(C)[C@H]([C@H](OC(=O)c3ccccc3)[C@]3(O)C[C@H](OC(=O)[C@H](O)[C@@H](NC(=O)c4ccccc4)c4ccccc4)C(C)=C1C3(C)C)[C@]1(OC(C)=O)CO[C@@H]1C[C@@H]2O", "Recorded measurement": -0.18}
{"Molecule": "Cc1cc(CN)cc(C)c1-c1ncn(C)c1-c1ccnc2cc(F)ccc12", "Recorded measurement": 0.92}
{"Molecule": "C[C@]12N[C@H](Cc3ccccc31)c1ccccc12", "Recorded measurement": 0.88}
{"Molecule": "CC(C)c1cc(Oc2c(Cl)cc(-n3nc(C#N)c(=O)[nH]c3=O)cc2Cl)n[nH]c1=O", "Recorded measurement": 0.96}
{"Molecule": "O=C1NC(=Nc2c(Cl)cccc2Cl)S/C1=C\\c1ccc2nccnc2c1", "Recorded measurement": 0.05}
{"Molecule": "COc1cc2c(Oc3ccc(NC(=O)C4(C(=O)Nc5ccc(F)cc5)CC4)cc3F)ccnc2cc1OCCCN1CCOCC1", "Recorded measurement": -0.82}
